# assayOverview: chemical genetic growth profiling, strain panel (AID 1159580);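 also: tested at 20 µM; growth read once vehicle control cultures reached saturation at 30 °C; 1 = growth at the plate median or of vehicle wells; lower values mean less growth of the strain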
# experimentalConditions: S. cerevisiae deletion strains, growth OD, locus YGL227W, strain vid30, active compounds read low
The whole screen tested about 5,500 compounds, of which about 2,000 (36%) were called active. Not shown: some 18% with an inconclusive outcome. Some of the results follow.
property: normalized growth

[[record]]
compound = "COc1ccc2c(c1O)-c1c(OC)c(OC)cc3c1[C@H](C2)N(C)CC3"
experimentalvalue = 0.989

[[record]]
compound = "NCc1ccc(S(N)(=O)=O)cc1"
experimentalvalue = 1.01

[[record]]
compound = "CCCN(CCC)C(=O)C(CCC(=O)O)NC(=O)c1ccccc1 (stereo not given)"
experimentalvalue = 0.986

[[record]]
compound = "CCCCC(CC)CN=C(N)NC(N)=NCCCCCCN=C(N)NC(N)=NCC(CC)CCCC (stereo not given)"
experimentalvalue = 0.0653

[[record]]
compound = "CC[C@@]1(C2O[C@@H](C3O[C@@](O)(CC)[C@H](C)C[C@@H]3C)C[C@@H]2C)CC[C@H]([C@]2(C)CCC3(C[C@H](O)[C@@H](C)[C@@H]([C@H](C)[C@@H](OC)[C@H](C)C(=O)O)O3)O2)O1 (stereo not given in full)"
experimentalvalue = 1

[[record]]
compound = "C[C@](N)(Cc1ccc(O)cc1)C(=O)O"
experimentalvalue = 0.992

[[record]]
compound = "O=C(O)CCC(=O)c1ccc(-c2ccccc2)cc1"
experimentalvalue = 1

[[record]]
compound = "CCOc1ccc2c(c1)C(C)=CC(C)(C)N2"
experimentalvalue = 0.98

[[record]]
compound = "C[C@](N)(Cc1ccc(O)c(O)c1)C(=O)O"
experimentalvalue = 0.979

[[record]]
compound = "c1cc2c(cc1[C@H]1OC[C@H]3[C@@H]1CO[C@H]3c1ccc3c(c1)OCO3)OCO2"
experimentalvalue = 0.926

[[record]]
compound = "COc1cc(C)c2c(c1C=O)Oc1c(c(C)c(O)c3c1C(O)OC3=O)OC2=O (stereo not given)"
experimentalvalue = 1.02

[[record]]
compound = "CC1(C)O[C@@H]2[C@@H](CO[C@@]3(COS(N)(=O)=O)OC(C)(C)O[C@@H]23)O1"
experimentalvalue = 1.01

[[record]]
compound = "C=CC1=C(C)/C(=C/c2[nH]c(Cc3[nH]c(/C=C4\\NC(=O)C(C)=C4C=C)c(C)c3CCC(=O)O)c(CCC(=O)O)c2C)NC1=O"
experimentalvalue = 0.994

[[record]]
compound = "CCOC(=O)C(C)(N)Cc1ccc(O)c(O)c1 (stereo not given)"
experimentalvalue = 0.983

[[record]]
compound = "COc1cc2c(cc1O)CC1c3c(cc(O)c(OC)c3-2)CCN1C (stereo not given)"
experimentalvalue = 1.02

[[record]]
compound = "CCC(COC(=O)c1cc(OC)c(OC)c(OC)c1)(c1ccccc1)N(C)C (stereo not given)"
experimentalvalue = 0.99

[[record]]
compound = "COC(=O)[C@H]1[C@H]2C[C@@H]3c4[nH]c5cc(OC)ccc5c4CCN3C[C@H]2C[C@@H](OC(=O)c2cc(OC)c(OC)c(OC)c2)[C@@H]1OC"
experimentalvalue = 0.979

[[record]]
compound = "c1ccc(-c2ccc(C(c3ccccc3)n3ccnc3)cc2)cc1 (stereo not given)"
experimentalvalue = 0.077

[[record]]
compound = "Cc1cccc(CN2CCN(C(c3ccccc3)c3ccc(Cl)cc3)CC2)c1 (stereo not given)"
experimentalvalue = 0.963

[[record]]
compound = "CC1(C)O[C@@H]2CC3C4CCC5=CC(=O)C=C[C@]5(C)C4[C@@H](O)C[C@]3(C)[C@]2(C(=O)CO)O1 (stereo not given in full)"
experimentalvalue = 0.998

